molecular target: SMARCA2 (Homo sapiens, UniProt P51531); construct: endogenous in cells; host or cells: HT1080 (CRISPR HiBiT knock-in clone, generated in house); experiment: SMARCA2 HiBiT degradation assay (cellular); assay type: cell-based; conditions: 6 h incubation; HiBiT-tagged SMARCA2, luminescence read-out; table head names A549; read-out: HiBit A549 SMARCA2 IP (nM) 6 h
Sequence (P51531 whole entry): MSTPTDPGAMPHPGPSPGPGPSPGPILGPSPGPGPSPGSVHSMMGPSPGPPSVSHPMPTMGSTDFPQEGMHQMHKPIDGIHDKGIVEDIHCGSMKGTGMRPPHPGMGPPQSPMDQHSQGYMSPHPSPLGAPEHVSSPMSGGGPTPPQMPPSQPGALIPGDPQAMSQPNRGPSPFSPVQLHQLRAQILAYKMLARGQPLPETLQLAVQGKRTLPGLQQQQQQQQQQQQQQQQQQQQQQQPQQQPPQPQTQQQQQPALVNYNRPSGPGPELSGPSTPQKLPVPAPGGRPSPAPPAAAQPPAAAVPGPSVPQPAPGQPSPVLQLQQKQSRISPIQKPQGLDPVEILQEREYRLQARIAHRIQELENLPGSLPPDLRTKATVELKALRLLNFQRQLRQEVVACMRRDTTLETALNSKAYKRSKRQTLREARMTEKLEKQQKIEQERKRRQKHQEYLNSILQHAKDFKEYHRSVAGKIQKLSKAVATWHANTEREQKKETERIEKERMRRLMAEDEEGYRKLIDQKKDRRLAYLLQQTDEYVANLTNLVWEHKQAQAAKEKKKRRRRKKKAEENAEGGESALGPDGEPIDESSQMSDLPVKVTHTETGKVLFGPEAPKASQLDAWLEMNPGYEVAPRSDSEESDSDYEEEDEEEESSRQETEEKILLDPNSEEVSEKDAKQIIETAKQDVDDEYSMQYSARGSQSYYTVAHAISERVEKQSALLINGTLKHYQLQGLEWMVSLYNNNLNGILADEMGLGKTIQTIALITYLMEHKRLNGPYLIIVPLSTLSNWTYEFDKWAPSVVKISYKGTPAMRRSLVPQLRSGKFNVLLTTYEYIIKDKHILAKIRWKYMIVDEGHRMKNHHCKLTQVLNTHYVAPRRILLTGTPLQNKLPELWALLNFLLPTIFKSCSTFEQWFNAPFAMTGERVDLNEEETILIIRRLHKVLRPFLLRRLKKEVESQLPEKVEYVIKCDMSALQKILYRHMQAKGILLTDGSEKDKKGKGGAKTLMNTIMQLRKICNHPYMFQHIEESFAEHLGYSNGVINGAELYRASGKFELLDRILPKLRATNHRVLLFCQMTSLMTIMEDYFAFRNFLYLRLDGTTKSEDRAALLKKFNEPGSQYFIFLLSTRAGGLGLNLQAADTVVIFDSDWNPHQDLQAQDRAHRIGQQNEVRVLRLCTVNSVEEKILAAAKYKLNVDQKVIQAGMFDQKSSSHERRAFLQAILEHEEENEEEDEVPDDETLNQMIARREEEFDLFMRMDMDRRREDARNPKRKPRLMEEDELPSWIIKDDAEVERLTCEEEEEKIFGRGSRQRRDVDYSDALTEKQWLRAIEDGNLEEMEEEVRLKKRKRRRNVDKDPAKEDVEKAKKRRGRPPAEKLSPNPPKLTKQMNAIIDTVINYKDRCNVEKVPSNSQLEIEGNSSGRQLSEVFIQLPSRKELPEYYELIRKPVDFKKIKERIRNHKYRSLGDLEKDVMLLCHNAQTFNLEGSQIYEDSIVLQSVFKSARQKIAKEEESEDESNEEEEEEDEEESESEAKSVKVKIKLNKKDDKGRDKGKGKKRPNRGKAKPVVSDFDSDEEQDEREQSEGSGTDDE
READOUT KIND: DC50 (nM)
Quick reminder: number only, in nM, skip the unit.

Here is how some compounds turned out for DC50.
Nc1nnc(-c2ccccc2O)cc1N1CC(Oc2cccc(CN3CCN(C(=O)C4CCN(c5ccc6c(c5)C(=O)N(C5CCC(=O)NC5=O)C6=O)CC4)CC3)c2)C1 (racemic) [Example 155] = 5
Nc1nnc(-c2ccccc2O)cc1N1CC2CCC(C1)N2c1cccc(OCCN2CCN(C(=O)C3CCN(c4cccc5c4C(=O)N(C4CCC(=O)NC4=O)C5=O)CC3)CC2)c1 (racemic) [Example 13] = 32

--- query ---
# get_value(readout='DC50', item= Nc1nnc(-c2ccccc2O)cc1N1CCC(C(=O)N2CC3(CCN(CCC4CCN(c5ccc6c(c5)C(=O)N(C5CCC(=O)NC5=O)C6=O)CC4)C3)C2)(c2ccccc2)CC1 (stereo not drawn) [Example 191] ) 30

###

biological target: SMARCA2 (Homo sapiens); construct: endogenous in cells; host or cells: HT1080 (CRISPR HiBiT knock-in clone, generated in house); assay: SMARCA2 HiBiT degradation assay (cellular); assay type: cell-based; settings: A549, 6 h incubation; Emax = amount of residual protein remaining in the cell following compound treatment; table head names A549
READOUT KIND: Emax (%)
Quick reminder: number only, in %, skip the unit.

Nc1nnc(-c2ccccc2O)cc1N1CCC(C(=O)N2CC3(CCN(C(=O)COc4ccc5c(c4)C(=O)N(C4CCC(=O)NC4=O)C5=O)CC3)C2)(c2ccccc2)CC1 (centres unmarked) = 57

# get_value(readout='Emax', item= Nc1nnc(-c2ccccc2O)cc1OC1CCCN(c2ccc(OCCN3CCN(C(=O)CCCCCCCCCCCn4cc(CNc5cccc6c5C(=O)N(C5CCC(=O)NC5=O)C6=O)nn4)CC3)cc2)C1 (centres unmarked) ) 45

# get_value(readout='Emax', item= Nc1nnc(-c2ccccc2O)cc1O[C@H]1CCCN(c2ccc(N3CCN(CCCCCCCCCn4cc(CNc5cccc6c5C(=O)N(C5CCC(=O)NC5=O)C6=O)nn4)CC3)cc2)C1 (mixture of isomers) ) 60

# get_value(readout='Emax', item= Nc1nnc(-c2cc(F)ccc2O)cc1N1CCC(CNC(=O)CCCN2CCC(c3ccc(OC4CCC(=O)NC4=O)cc3)CC2)(c2ccccc2)CC1 (centres unmarked) ) 37

# get_value(readout='Emax', item= Nc1nnc(-c2ccccc2O)cc1N1CC2CCC(C1)N2c1ccccc1OCCN1CCN(c2ccc3c(c2)C(=O)N(C2CCC(=O)NC2=O)C3=O)CC1 (racemic) ) 75

# get_value(readout='Emax', item= Nc1nnc(-c2ccccc2O)cc1N1CC2CCC(C1)N2c1cccc(OCCN2CCN(C(=O)CN3CCC(c4ccc(NC5CCC(=O)NC5=O)cc4)CC3)CC2)c1 (racemic) ) 46

# get_value(readout='Emax', item= Nc1nnc(-c2ccccc2O)cc1N1CCC(CNC(=O)CNc2cccc3c2C(=O)N(C2CCC(=O)NC2=O)C3=O)(c2ccccc2)CC1 (centres unmarked) ) 57

###

molecular target: SMARCA2 (Homo sapiens); construct: endogenous in cells; host or cells: HT1080 (CRISPR HiBiT knock-in clone, generated in house); assay: SMARCA2 HiBiT degradation assay (cellular); type: cell-based; details: A549, 6 h incubation; Emax = amount of residual protein remaining in the cell following compound treatment; table head names A549
Lab note: cut-off is 50%. Strictly less in Emax is class 1. Exactly 50% or more is class 0.

Consider Nc1nnc(-c2ccccc2O)cc1N1CCC(C(=O)N2CC3(CCN(C(=O)CC4CCN(c5ccc6c(c5)C(=O)N(C5CCC(=O)NC5=O)C6=O)CC4)C3)C2)(c2ccccc2)CC1 (centres unmarked) . Does its Emax lie strictly below 50%? class 0

Consider Nc1nnc(-c2ccccc2O)cc1N1CCC(NC(=O)CC2CCN(C(=O)CCCN3CCC(c4ccc(NC5CCC(=O)NC5=O)cc4)CC3)CC2)(c2ccccc2)CC1 (centres unmarked) . Does its Emax lie strictly below 50%? class 0

Consider Nc1nnc(-c2ccccc2O)cc1N1CCN(c2ccccc2)C(C(=O)NCC2CCC(NC(=O)C3CCN(c4ccc5c(c4)C(=O)N(C4CCC(=O)NC4=O)C5=O)CC3)CC2)C1 (centres unmarked) . Does its Emax lie strictly below 50%? class 1

Consider Nc1nnc(-c2ccccc2O)cc1N1CCC(C(=O)N2CCC(C(=O)N3CCN(c4ccc5c(c4)C(=O)N(C4CCC(=O)NC4=O)C5=O)CC3)CC2)(c2ccccc2)CC1 (centres unmarked) . Does its Emax lie strictly below 50%? class 1

Consider Nc1nnc(-c2ccccc2O)cc1OC1CCCN(c2ccc(N3CCN(C(=O)CCCCCCCCN4CCN(c5ccc6c(c5)C(=O)N(C5CCC(=O)NC5=O)C6=O)CC4)CC3)cc2)C1 (centres unmarked) . Does its Emax lie strictly below 50%? class 0

###

biological target: SMARCA2 (Homo sapiens); construct: endogenous in cells; host or cells: HT1080 (CRISPR HiBiT knock-in clone, generated in house); assay: SMARCA2 HiBiT degradation assay (cellular); format: cell-based; details: 6 h incubation; HiBiT-tagged SMARCA2, luminescence read-out; table head names A549; read-out: HiBit A549 SMARCA2 IP (nM) 6 h
Measured DC50 accompanies every entry in the list below.
Quick reminder: number only, in nM, skip the unit.

Nc1nnc(-c2ccccc2O)cc1N1CC2CCC(C1)N2c1cccc(CN2CCC(C(=O)NC3CN(c4ccc5c(c4)C(=O)N(C4CCC(=O)NC4=O)C5=O)C3)CC2)c1 (racemic) = 31
Nc1nnc(-c2ccccc2O)cc1N1CC2CCC(C1)N2c1cccc(OCCN2CCN(C(=O)CNC(=O)C3CCN(c4ccc5c(c4)C(=O)N(C4CCC(=O)NC4=O)C5=O)CC3)CC2)c1 (racemic) [Example 141] = 9
Nc1nnc(-c2ccccc2O)cc1N1CCC(C(=O)N2CC3(CN(C(=O)C4CCN(c5ccc6c(c5)C(=O)N(C5CCC(=O)NC5=O)C6=O)CC4)C3)C2)(c2ccccc2)CC1 (centres unmarked) = 47
Nc1nnc(-c2ccccc2O)cc1OC1CCCN(c2ccc(N3CCN(C(=O)CCCCCCCCCCn4cc(CNc5cccc6c5C(=O)N(C5CCC(=O)NC5=O)C6=O)nn4)CC3)cc2)C1 (centres unmarked) = 158
Nc1nnc(-c2ccccc2O)cc1N1CCC(C(=O)N2CC3(CCN(CC4CCN(c5ccc6c(c5)C(=O)N(C5CCC(=O)NC5=O)C6=O)CC4)C3)C2)(c2ccccc2)CC1 (centres unmarked) = 22

# get_value(readout='DC50', item= Nc1nnc(-c2ccccc2O)cc1N1CC2CCC(C1)N2c1cccc(OCCN2CCN(C(=O)CN3CCC(c4ccc(NC5CCC(=O)NC5=O)cc4)CC3)CC2)c1 (racemic) ) 19

# get_value(readout='DC50', item= Nc1nnc(-c2ccccc2O)cc1N1CCC2(CC1)CN(C(=O)CCCCCCCCCCCn1cc(CNc3cccc4c3C(=O)N(C3CCC(=O)NC3=O)C4=O)nn1)CCO2 (centres unmarked) ) 423

# get_value(readout='DC50', item= Nc1nnc(-c2cc(F)ccc2O)cc1N1CCC(CNC(=O)CCCN2CCC(c3ccc(OC4CCC(=O)NC4=O)cc3)CC2)(c2ccccc2)CC1 (centres unmarked) ) 99

# get_value(readout='DC50', item= Nc1nnc(-c2ccccc2O)cc1N1CCC(CNC(=O)CNc2cccc3c2C(=O)N(C2CCC(=O)NC2=O)C3=O)(c2ccccc2)CC1 (centres unmarked) ) 221

# get_value(readout='DC50', item= Nc1nnc(-c2ccccc2O)cc1N1CC2CCC(C1)N2c1cccc(CN2CCC(C(=O)N3CCC(c4ccc(OC5CCC(=O)NC5=O)cc4)CC3)CC2)c1 (racemic) ) 17

# get_value(readout='DC50', item= Nc1nnc(-c2ccccc2O)cc1N1CC(Oc2cccc(N3CCN(C(=O)CCC4CCN(c5ccc6c(c5)C(=O)N(C5CCC(=O)NC5=O)C6=O)CC4)CC3)c2)C1 (racemic) ) 19

###

biological target: SMARCA2 (Homo sapiens); construct: endogenous in cells; host or cells: HT1080 (CRISPR HiBiT knock-in clone, generated in house); assay: SMARCA2 HiBiT degradation assay (cellular); type: cell-based; details: 6 h incubation; HiBiT-tagged SMARCA2, luminescence read-out; table head names A549; read-out: HiBit A549 SMARCA2 IP (nM) 6 h
READOUT KIND: log10(DC50) (log10 of the value in nM)
Values reflect log10 of reported DC50 (nM).

Here is how some compounds turned out for log10(DC50).
CN(c1cccc2c1C(=O)N(C1CCC(=O)NC1=O)C2=O)C1CCN(C(=O)CCC(=O)N2CCN(CCOc3cccc(N4C5CCC4CN(c4cc(-c6ccccc6O)nnc4N)C5)c3)CC2)CC1 (racemic) = 2.07
Nc1nnc(-c2ccccc2O)cc1N1CCC(NC(=O)CCCN2CCC(c3ccc(OC4CCC(=O)NC4=O)cc3)CC2)(c2ccccc2)CC1 (stereo not shown) = 2.93
Nc1nnc(-c2ccccc2O)cc1O[C@@H]1CCCN(c2ccc(N3CCN(CCCCCCCCCn4cc(CNc5cccc6c5C(=O)N(C5CCC(=O)NC5=O)C6=O)nn4)CC3)cc2)C1 (stereo partly shown) = 1.77
Nc1ccccc1-c1cc(N2CC3CCC(C2)N3c2cccc(CN3CCN(C(=O)C4CCN(c5ccc6c(c5)C(=O)N(C5CCC(=O)NC5=O)C6=O)CC4)CC3)c2)c(N)nn1 (stereo not shown) = 2.37

# get_value(readout='log10(DC50)', item= Nc1nnc(-c2ccccc2O)cc1N1CC2CCC(C1)N2c1cccc(OCCN2CCN(C(=O)CNC(=O)C3CCN(c4ccc5c(c4)C(=O)N(C4CCC(=O)NC4=O)C5=O)CC3)CC2)c1 (racemic) [Example 19] ) 1.81

# get_value(readout='log10(DC50)', item= Nc1nnc(-c2ccccc2O)cc1N1CC2CCC(C1)N2c1cccc(OCCN2CCN(C(=O)COc3ccc4c(c3)C(=O)N(C3CCC(=O)NC3=O)C4=O)CC2)c1 (racemic) ) 1.49

# get_value(readout='log10(DC50)', item= Nc1nnc(-c2ccccc2O)cc1OC1CCCN(c2ccc(OCCN3CCN(C(=O)CCCCCCCCCCCCCCn4cc(CNc5cccc6c5C(=O)N(C5CCC(=O)NC5=O)C6=O)nn4)CC3)cc2)C1 (stereo not shown) ) 2.41
